We begin with a simple list: items and their reported % IGF-1 (in test).
Molecular target: T1, human IGF-1 receptor (human, UniProt P08069 31-1367)
T1 construct: whole, on cells; transfected HEK293 cells in the phosphorylation assay
Test: competition SPA, [125I]IGF-1
Bridge positions count the residues as written; N and C are the ends. Ends that are not written are not given here. I, II: the chains in the order shown.
Numeric answer only, unit % assumed.

Examples from the recorded data:
IGF-1 A (H8 A9 N21):B(H5D10Y16L17) DPI A-COOH (ligand, not fully specified (C-terminus); ends and bridges not checked) chain 1: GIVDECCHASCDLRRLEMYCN-OH chain 2: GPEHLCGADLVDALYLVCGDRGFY: 12.9
IGF-1 A:B (H5D10Y16L17) DPI (ligand, cysteine pairing not given here) chain 1: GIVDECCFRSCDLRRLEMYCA-NH2 chain 2: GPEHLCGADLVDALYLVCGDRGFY-NH2: 11.2
IGF-1 A:IGF-1 B(1-8)-In (9-17)-IGF-1 B(18-30) (ligand, disulfide I:6-I:11, I:20-II:18, I:7-II:6 (inferred); not fully specified, chimeric B chain) chain 1: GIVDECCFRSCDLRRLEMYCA-NH2 chain 2: GPETLCGSHLVEALYLVCGDRGFYFNKPT-NH2: 0.3
IGF-1 A (H8 A9 N21):B(H5D10Y16L17 A22) DPI A-COOH (ligand, not fully specified (C-terminus); ends and bridges not checked) chain 1: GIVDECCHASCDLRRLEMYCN-OH chain 2: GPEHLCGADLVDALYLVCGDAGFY: 2.3
IGF-1 A:B(E10Y16L17)-E31E32 B-COOH (ligand, not fully specified (C-terminus); ends and bridges not checked) chain 1: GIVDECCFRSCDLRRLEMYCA chain 2: GPETLCGAELVDALYLVCGDRGFYFNKPTEE-OH: 3
IGF-1 A:B(D10Y16L17) DPI A-COOH (ligand, ends and bridges not checked) chain 1: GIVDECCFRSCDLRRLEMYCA-OH chain 2: GPETLCGADLVDALYLVCGDRGFY-NH2: 7.7
IGF-1 A:B (E10Y16L17) DPI (ligand, cysteine pairing not given here) chain 1: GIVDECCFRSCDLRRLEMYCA-NH2 chain 2: GPETLCGAELVDALYLVCGDRGFY-NH2: 3.3

Give a short answer stating reported % IGF-1 (in test) for IGF-1 A:In B(1-5)-IGF-1 B(YL) (6-30) (ligand, ends and bridges not checked; also: C-terminal amide, chain not given here, chimeric B chain) chain 1: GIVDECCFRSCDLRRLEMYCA chain 2: FVNQHLCGAELVDALYLVCGDRGFYFNKPT . 3.6
